Ref: the domain aggregation screens of Martell et al. (2025)

# ASSAY_METHOD_TEXT: soluble fraction after stress (log2 fold change); higher = more stays soluble; pooled small domains, quantitative proteomics;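 also: 20 min heating vs room temperature control held 20 min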
# EXPERIMENTAL_PARAMETERS: stress: 75 degC
Reported soluble fraction (log2) values are given for each entry in this list.
Lab note: jot down the number only; don't add units.

Some solved cases for reference:
monomer_sequence=HMHADIAATVVATMRQLGVLGLPRNYEIFYEALSGTNRELSLAVVSLSNRPTQDDLDRIGRRFFA val=-1.33
monomer_sequence=HMLPAGAAAPLEDGSAPEGYTVKGNADSGLYHEPDGRWYDATVAEFWFKTAADAEAAGFRKAGS val=0.149
monomer_sequence=HMANSANARKSLVSKLIAGGKIASQSDLVKALKKQGIVVTQGTASRDLEDIGAIRVRNSEGEIVYALT val=0.0457
monomer_sequence=HMGLLEMPSERERQVLVLIAEGLSNKEIAARLYLTEGTVKNHAHSLYAKLNVTTRTLAIARARQLGI val=-1.37
monomer_sequence=HMVDQKLIQASAEHSGIRIDRFLSEQLPEHSRSYIQKLIKDGQVSIGGKAVKSNYKIAGTEEISLLIPDQ val=-0.0516
monomer_sequence=HMSLTEEQVDSGLKEIRLALLEADVALPVVKNFITNIKPKAIGQEIIRSTSPGQMIVKIVYDELVSIL val=-0.066
monomer_sequence=HMSGLVPAIGTKGEEGYIRESDIPGSNVKNPEEALAYMEWLKTQPSELLIPLYDEQGNVIGQFAVS val=0.461

What soluble fraction (log2) value was documented for this sequence, HMRAGALTTLTERERNVFDLVVTGHSNPEIARQLSIADVTVKTHVGHILSKLGVRDRVHLVIWAHRQGLAD ?
-2.84
